Each entry below carries its recorded pIC50.
- System: 991263-137-R1-J2-PDC complex spheroid viability;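 further: spheroids exposed to compounds for 7 days before readout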
- ASSAY INFO: Anticancer human tumor 991263-137-R1-J2-PDC patient-derived colon adenocarcinoma cell line growth inhibition [POLQ]
- CONDITION CONTEXT: curve of first compound; second compound 10 µM
pIC50: −log10 of the molar value.

COMPOUND | TARGET OR SYSTEM | SIGN | pIC50
CC1COCCN1c1cc(-c2ccnn2C)c2ccnc(-c3ccn[nH]3)c2n1 (stereo unspecified) + COC1C(OC(N)=O)C(O)C(Oc2ccc3c(O)c(NC(=O)c4ccc(O)c(CC=C(C)C)c4)c(=O)oc3c2C)OC1(C)C | 991263-137-R1-J2-PDC complex spheroid viability | = | 5.87
CCc1cc2c(N3CCc4c(cc(Cn5ccnc5)cc4-c4cn(C)nc4C(F)(F)F)C3=O)ccnc2c(OC)n1 + Nc1ccc(C#CCN(C(=O)Cc2ncc(C(F)(F)F)cc2C(F)(F)F)c2ccc(F)cc2)nn1 | 991263-137-R1-J2-PDC complex spheroid viability | < | 5.00
CC1COCCN1c1cc(C2(O)CC3CCC(C2)O3)c2cnn(-c3ccn[nH]3)c2n1 (stereo unspecified) + Cc1cccc(N(C)C(=O)C2C(O)CCN2c2nc(C)cc(C(F)(F)F)c2C#N)c1 | 991263-137-R1-J2-PDC complex spheroid viability | = | 6.02
COc1cccc(OCCCN)c1-c1cc(Nc2cnc(C#N)cn2)n[nH]1 + Cc1cccc(N(C)C(=O)C2C(O)CCN2c2nc(C)cc(C(F)(F)F)c2C#N)c1 | 991263-137-R1-J2-PDC complex spheroid viability | = | 6.20
CNCc1ccc(-c2[nH]c3cc(F)cc4c3c2CCNC4=O)cc1 + Cc1cccc(N(C)C(=O)C2C(O)CCN2c2nc(C)cc(C(F)(F)F)c2C#N)c1 | 991263-137-R1-J2-PDC complex spheroid viability | < | 5.00
C#Cc1c(F)ccc2cc(O)cc(-c3ncc4c(N5CC6CCC(C5)N6)nc(OCC56CCCN5CC(F)C6)nc4c3F)c12 (stereo unspecified) + Nc1ccc(C#CCN(C(=O)Cc2ncc(C(F)(F)F)cc2C(F)(F)F)c2ccc(F)cc2)nn1 | 991263-137-R1-J2-PDC complex spheroid viability | < | 5.00
O=c1[nH]cc(F)c(=O)[nH]1 + Cc1cccc(N(C)C(=O)C2C(O)CCN2c2nc(C)cc(C(F)(F)F)c2C#N)c1 | 991263-137-R1-J2-PDC complex spheroid viability | < | 5.00
COc1cccc2c1C(=O)c1c(O)c3c(c(O)c1C2=O)CC(O)(C(=O)CO)CC3OC1CC(N)C(O)C(C)O1 (stereo unspecified) + COC1C(OC(N)=O)C(O)C(Oc2ccc3c(O)c(NC(=O)c4ccc(O)c(CC=C(C)C)c4)c(=O)oc3c2C)OC1(C)C | 991263-137-R1-J2-PDC complex spheroid viability | = | 5.99
O=C(c1cc(Cc2n[nH]c(=O)c3ccccc23)ccc1F)N1CCN(C(=O)C2CC2)CC1 + COC1C(OC(N)=O)C(O)C(Oc2ccc3c(O)c(NC(=O)c4ccc(O)c(CC=C(C)C)c4)c(=O)oc3c2C)OC1(C)C | 991263-137-R1-J2-PDC complex spheroid viability | < | 5.00
Nc1ccn(C2OC(CO)C(O)C2(F)F)c(=O)n1 (stereo unspecified) + Nc1ccc(C#CCN(C(=O)Cc2ncc(C(F)(F)F)cc2C(F)(F)F)c2ccc(F)cc2)nn1 | 991263-137-R1-J2-PDC complex spheroid viability | < | 5.00
COc1ccc([C@@H](O)c2cc(-c3ncnc4cc(N5CCOCC5)ccc34)c(F)cc2Cl)nn1 + Cc1cccc(N(C)C(=O)C2C(O)CCN2c2nc(C)cc(C(F)(F)F)c2C#N)c1 | 991263-137-R1-J2-PDC complex spheroid viability | = | 5.42

Origin of values: PubChem BioAssay AID1963828
